Would you mind telling me the reported Kd of each entry?
Assay target: T1, human C1s (human, UniProt P09871 16-688)
T1 construct: also called hC1s; serum-derived human C1s (CompTech)
T1 sequence: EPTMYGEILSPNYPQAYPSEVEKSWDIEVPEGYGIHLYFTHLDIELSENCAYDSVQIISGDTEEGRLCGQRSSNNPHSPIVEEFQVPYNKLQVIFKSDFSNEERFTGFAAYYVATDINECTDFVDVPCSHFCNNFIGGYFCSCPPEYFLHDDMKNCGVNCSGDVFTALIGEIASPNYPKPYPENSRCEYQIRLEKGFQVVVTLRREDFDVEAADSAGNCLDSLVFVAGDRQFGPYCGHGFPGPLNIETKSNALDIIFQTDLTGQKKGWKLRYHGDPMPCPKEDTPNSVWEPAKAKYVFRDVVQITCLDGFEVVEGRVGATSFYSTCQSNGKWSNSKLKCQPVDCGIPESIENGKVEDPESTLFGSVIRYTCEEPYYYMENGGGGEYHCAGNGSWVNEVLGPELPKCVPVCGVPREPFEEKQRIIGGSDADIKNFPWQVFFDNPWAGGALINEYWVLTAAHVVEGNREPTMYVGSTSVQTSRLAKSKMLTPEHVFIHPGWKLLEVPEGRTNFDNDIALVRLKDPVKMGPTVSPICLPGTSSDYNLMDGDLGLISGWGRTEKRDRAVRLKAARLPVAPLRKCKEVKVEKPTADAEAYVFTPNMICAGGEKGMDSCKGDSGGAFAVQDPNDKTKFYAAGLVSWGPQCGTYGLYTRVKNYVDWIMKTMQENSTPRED
Measurement description: SPR, Ab captured; pH 7.4, 1.2 mM Ca
One number for each entry, in nM.

Worked examples follow.
{"columns": ["Binder", "Result value"],
 "data": [
  ["C1_IPN92H0162-SG4GK/IPN93L0024-SK1 (antibody, human IgG4 S228P, kappa, name in Kabat numbering, V domains shown, also called IPN92H0162/IPN93L0024) VH: EVMLVESGGGLVKPGGSLRLSCAASGFTFSNYAMSWVRQAPGKGLEWVATISSGGSHTYKLDSVKGRFTISRDNSKDTLYLQMNSLRAEDTALYYCARLFTGHAMDYWGQGTLVTVSS VL: QIVLTQSPATLSLSPGERATLSCTASSSVSSSYLHWYQQKPGKAPKLWIYSTSNLASGVPSRFSGSGSGTDYTLTISSLQPEDFATYYCHQYYRLHPITFGQGTKLEIKR", 1.8],
  ["C1_IPN92H0231-SG4GK/IPN93L0024-SK1 (antibody, human IgG4 S228P, kappa, name in Kabat numbering, V domains shown, also called IPN92H0231/IPN93L0024) VH: EVMLVESGGGLVKPGGSLRLSCAASGFTFSNYAMSWVRQAPGKGLEWVATISSGGSHTYYLDSVKGRFTISRDNSKDTLYLQMNSLRAEDTALYYCARLFTKHAMDYWGQGTLVTVSS VL: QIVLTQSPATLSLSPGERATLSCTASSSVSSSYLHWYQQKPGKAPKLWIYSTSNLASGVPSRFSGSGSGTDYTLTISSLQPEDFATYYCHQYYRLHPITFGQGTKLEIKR", 1.3]
]}

Qu. What value of Kd has been recorded for this entry: C1_IPN92H0193-SG4GK/IPN93L0024-SK1 (antibody, human IgG4 S228P, kappa, name in Kabat numbering, V domains shown, also called IPN92H0193/IPN93L0024) VH: EVMLVESGGGLVKPGGSLRLSCAASGFTFSNYAMSWVRQAPGKGLEWVATISSGGSHTYYLDSVKDRFTISRDNSKDTLYLQMNSLRAEDTALYYCARLFTGHAMDYWGQGTLVTVSS VL: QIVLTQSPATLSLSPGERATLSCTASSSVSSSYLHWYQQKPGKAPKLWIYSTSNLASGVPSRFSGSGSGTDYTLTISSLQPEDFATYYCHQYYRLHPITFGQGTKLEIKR
Ans. 0.925
